Reference for the values: patent US10829490B2

Biological target: CDK2/CyclinA (Homo sapiens (Human), UniProt P24941)
Assay: CDK2/CycA kinase assay, microfluidic kinase detection (Caliper, Nanosyn)
Settings: 12-point dose-response, ATP at Km (50 μM), enzyme 0.2 nM, incubation 3 hr; read-out: CDK2/Cyclin A
Protocol: Selected compounds disclosed herein were tested in CDK4/cyclinD1, CDK2/CycA and CDK2/cyclinE kinase assays by Nanosyn (Santa Clara, Calif.) to determine their inhibitory effect on these CDKs. The assays were performed using microfluidic kinase detection technology (Caliper Assay Platform). The compounds were tested in 12-point dose-response format in singlicate at Km for ATP. […]
pIC50: −log10 of the molar value.
assay.endpoint: pIC50

Examples with answers:
CN1CCN([C@H]2CC[C@H](Nc3ncc4cc5n(c4n3)C3(CCCCC3)CNC5=O)CC2)CC1 ... 7.70
CN1CCN(c2cnc(Nc3ncc4cc5n(c4n3)C3(CCCCC3)CNC5=O)nc2)CC1 ... 4.87

1: CO[C@H]1CC[C@]2(CC1)CNC(=O)c1cc3cnc(Nc4ccc(N5CCN(C)CC5)cn4)nc3n12
2: CN1CCN([C@H]2CC[C@@H](Nc3ncc4cc5n(c4n3)C3(CCCCC3)CNC5=O)CC2)CC1
Which entry shows the lesser value of pIC50 here, 1 or 2 ? // return label of chosen record 1
